Cited source: paper PMC6409085

molecular target: SfurOBP11 (Sogatella furcifera, UniProt V5T6E3); assay: biochemical; assay type: binding; conditions: ligand concentration 8, replicate 1
Sequence (V5T6E3 entry or part of it): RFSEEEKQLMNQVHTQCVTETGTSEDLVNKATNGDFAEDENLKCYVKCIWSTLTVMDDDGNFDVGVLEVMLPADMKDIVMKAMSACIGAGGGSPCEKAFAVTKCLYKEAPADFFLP
Measured Fluorescence intensity, fluorescence competitive binding assay, OBP11, listed per entry for reference.
Write the value as a bare number.

Looking up C=C(C)C1CC=C(C)CC1 (single isomer, unassigned; (+)) [(+)-limonene] , I found its Fluorescence intensity, fluorescence competitive binding assay, OBP11 recorded as 18585

Looking up "O=Cc1ccccc1" , I found its Fluorescence intensity, fluorescence competitive binding assay, OBP11 recorded as 24810

Looking up "Cc1ccc(C(C)C)cc1" , I found its Fluorescence intensity, fluorescence competitive binding assay, OBP11 recorded as 26981

---

molecular target: SfurOBP11 (Sogatella furcifera); test: biochemical; assay type: binding; settings: ligand concentration 4, replicate 2
Assign yes (1) to entries whose Fluorescence intensity, fluorescence competitive binding assay, OBP11 meets or exceeds 30000; assign no (0) to the rest.

Use these answered entries as a reference point.
### Prompt Say whether C/C(=C\CO)CCC[C@H](C)CCC[C@H](C)CCCC(C)C [plant alcohol] shows Fluorescence intensity, fluorescence competitive binding assay, OBP11 of 30000 or more.
### Response no (0)

### Prompt Say whether C=C1CC/C=C(\C)CC[C@@H]2[C@@H]1CC2(C)C [β-caryophyllene] shows Fluorescence intensity, fluorescence competitive binding assay, OBP11 of 30000 or more.
### Response no (0)

### Prompt Say whether CCCCCCCCC=O [nonanal] shows Fluorescence intensity, fluorescence competitive binding assay, OBP11 of 30000 or more.
### Response yes (1)

### Prompt Say whether CCCCCC(C)=O [2-heptanone] shows Fluorescence intensity, fluorescence competitive binding assay, OBP11 of 30000 or more.
### Response no (0)

### Prompt Say whether CCCCCCCCCCCCC=O [tridecanal] shows Fluorescence intensity, fluorescence competitive binding assay, OBP11 of 30000 or more.
### Response no (0)

Continuing:
### Prompt Say whether CC(=O)c1ccccc1 [acetophenone] shows Fluorescence intensity, fluorescence competitive binding assay, OBP11 of 30000 or more.
### Response no (0)

### Prompt Say whether CCC/C=C/CO [(E)-2-hexenol] shows Fluorescence intensity, fluorescence competitive binding assay, OBP11 of 30000 or more.
### Response yes (1)

### Prompt Say whether O=Cc1ccccc1 [benzaldehyde] shows Fluorescence intensity, fluorescence competitive binding assay, OBP11 of 30000 or more.
### Response no (0)

### Prompt Say whether OC1CCCCC1 [cyclohexanol] shows Fluorescence intensity, fluorescence competitive binding assay, OBP11 of 30000 or more.
### Response no (0)

### Prompt Say whether CCCCCCCCCCC [n-hendecane] shows Fluorescence intensity, fluorescence competitive binding assay, OBP11 of 30000 or more.
### Response no (0)

---

target: SfurOBP11 (Sogatella furcifera, UniProt V5T6E3); assay: biochemical; format: binding; conditions: ligand concentration 12, replicate 2
recorded_endpoint: Fluorescence intensity, fluorescence competitive binding assay, OBP11

Looking up "C[C@@H]1CC[C@H]2C(C)(C)[C@H]3C[C@@]12CC[C@@]3(C)O" , I found its Fluorescence intensity, fluorescence competitive binding assay, OBP11 recorded as 37222

Continuing:
Looking up "CC(=O)/C=C/C1=C(C)CCCC1(C)C" , I found its Fluorescence intensity, fluorescence competitive binding assay, OBP11 recorded as 20727

Looking up "C=C1CC/C=C(\C)CC[C@@H]2[C@@H]1CC2(C)C" , I found its Fluorescence intensity, fluorescence competitive binding assay, OBP11 recorded as 23490

Looking up "CCCCCCCC" , I found its Fluorescence intensity, fluorescence competitive binding assay, OBP11 recorded as 26556

---

target: SfurOBP2 (Sogatella furcifera); assay: biochemical; format: binding; details: ligand concentration 2 (unit not given), replicate column 1 of 3
recorded_endpoint: Fluorescence competitive binding assay, OBP2 (raw fluorescence reading)
Write the value as a bare number.

Some molecules with recorded Fluorescence competitive binding assay, OBP2 (raw fluorescence reading):
Looking up "C=C/C(C)=C/C/C=C(\C)CCC=C(C)C" , I found its Fluorescence competitive binding assay, OBP2 (raw fluorescence reading) recorded as 15175

Looking up "CCCCCC(C)=O" , I found its Fluorescence competitive binding assay, OBP2 (raw fluorescence reading) recorded as 19792

Continue with the molecule presented below.
Looking up "C=C1CC/C=C(\C)CC[C@@H]2[C@@H]1CC2(C)C" , I found its Fluorescence competitive binding assay, OBP2 (raw fluorescence reading) recorded as 11458

---

Target: SfurOBP2 (Sogatella furcifera, UniProt V5T759)
Sequence (V5T759 entry or part of it): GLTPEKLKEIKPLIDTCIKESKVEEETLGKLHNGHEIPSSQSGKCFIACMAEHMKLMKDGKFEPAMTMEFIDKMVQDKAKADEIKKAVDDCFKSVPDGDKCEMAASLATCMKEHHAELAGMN
Assay: biochemical
Type: binding
Conditions: ligand concentration 12 (unit not given), replicate column 3 of 3
Protocol: Thirty-six rice odorants ([He et al., 2014]; [Wang et al., 2017]) and 1-N-phenyl-naphthylamine (1-NPN) were purchased from Sigma-Aldrich (St Louis, MO, USA). […] Fluorescence competitive binding assays were performed on Tecan Spark 10M (Tecan Group Ltd., Männedorf, Switzerland) with the F96 Black ELIAS Plate (Sangon) ([Khuhro et al., 2017]; [Liu et al., 2017]). The solutions were excited at 337 nm and emission spectra were recorded between 390 and 490 nm. […]
recorded_endpoint: Fluorescence competitive binding assay, OBP2 (raw fluorescence reading)

Looking up "CCCCCCCCCCCCCCCCCCC" , I found its Fluorescence competitive binding assay, OBP2 (raw fluorescence reading) recorded as 22198

Looking up "C[C@@H]1CC[C@H]2C(C)(C)[C@H]3C[C@@]12CC[C@@]3(C)O" , I found its Fluorescence competitive binding assay, OBP2 (raw fluorescence reading) recorded as 25011

Continuing:
Looking up C=C(C)C1CC=C(C)CC1 (single isomer, unassigned; (+)) [(+)-limonene] , I found its Fluorescence competitive binding assay, OBP2 (raw fluorescence reading) recorded as 16335

---

target: UniProt:V5T6E3; assay: biochemical; type: binding; settings: ligand concentration 4, replicate 2
Measured Fluorescence intensity, fluorescence competitive binding assay, OBP11, listed per entry for reference.

Some compounds with recorded Fluorescence intensity, fluorescence competitive binding assay, OBP11:
Looking up O=C(c1ccccc1)c1ccccc1 [benzophenone] , I found its Fluorescence intensity, fluorescence competitive binding assay, OBP11 recorded as 20654

Looking up CC(=O)/C=C/C1=C(C)CCCC1(C)C [β-Ionone] , I found its Fluorescence intensity, fluorescence competitive binding assay, OBP11 recorded as 28801

Looking up Cc1cc(C(C)(C)C)c(O)c(C(C)(C)C)c1 [BHT(2,6-di-tert-butyl-4-methylphenol)] , I found its Fluorescence intensity, fluorescence competitive binding assay, OBP11 recorded as 21258

Continuing:
Looking up C=CC(C)(O)CCC=C(C)CCC=C(C)C (mixture of isomers) [nerolidol] , I found its Fluorescence intensity, fluorescence competitive binding assay, OBP11 recorded as 28762

Looking up CC1=CC[C@@H](C(C)(C)O)CC1 [α-terpineol] , I found its Fluorescence intensity, fluorescence competitive binding assay, OBP11 recorded as 31369

Looking up Cc1ccc(C(C)C)cc1 [4-isopropyltoluene] , I found its Fluorescence intensity, fluorescence competitive binding assay, OBP11 recorded as 32067

Looking up COC(=O)c1ccccc1 [benzoic acid methylester] , I found its Fluorescence intensity, fluorescence competitive binding assay, OBP11 recorded as 27454

Looking up C=CC(C)(O)CCC=C(C)C (stereo not drawn) [linalool] , I found its Fluorescence intensity, fluorescence competitive binding assay, OBP11 recorded as 38977

Looking up CCCCCCCCCCCCCCCCCC [n-octadecane] , I found its Fluorescence intensity, fluorescence competitive binding assay, OBP11 recorded as 31130

Looking up CCCCCC=O [caproaldehyde] , I found its Fluorescence intensity, fluorescence competitive binding assay, OBP11 recorded as 29657

Looking up CCCCCCCC=O [octanal] , I found its Fluorescence intensity, fluorescence competitive binding assay, OBP11 recorded as 28958

Looking up CCCCCCCCCCCCO [lauryl alcohol] , I found its Fluorescence intensity, fluorescence competitive binding assay, OBP11 recorded as 24322

Looking up C[C@@H]1CC[C@H]2C(C)(C)[C@H]3C[C@@]12CC[C@@]3(C)O [cedrol] , I found its Fluorescence intensity, fluorescence competitive binding assay, OBP11 recorded as 37566

Looking up CCCCCCCCCCOCCCCCCCCCC [didecyl ether] , I found its Fluorescence intensity, fluorescence competitive binding assay, OBP11 recorded as 44519

Looking up CCCCCCCC [n-octane] , I found its Fluorescence intensity, fluorescence competitive binding assay, OBP11 recorded as 30015

---

Biological target: SfurOBP11 (Sogatella furcifera, UniProt V5T6E3)
Experiment: biochemical
Type: binding
Conditions: ligand concentration 16, replicate 3
Description: Thirty-six rice odorants ([He et al., 2014]; [Wang et al., 2017]) and 1-N-phenyl-naphthylamine (1-NPN) were purchased from Sigma-Aldrich (St Louis, MO, USA). […] Fluorescence competitive binding assays were performed on Tecan Spark 10M (Tecan Group Ltd., Männedorf, Switzerland) with the F96 Black ELIAS Plate (Sangon) ([Khuhro et al., 2017]; [Liu et al., 2017]). The solutions were excited at 337 nm and emission spectra were recorded between 390 and 490 nm. […]
Measured Fluorescence intensity, fluorescence competitive binding assay, OBP11, listed per entry for reference.
Write the value as a bare number.

Some compounds with recorded Fluorescence intensity, fluorescence competitive binding assay, OBP11:
Looking up "CCCCCCCCCCCCCCCCCC" , I found its Fluorescence intensity, fluorescence competitive binding assay, OBP11 recorded as 29164

Looking up "CCCCCCCCCCCCCCCC" , I found its Fluorescence intensity, fluorescence competitive binding assay, OBP11 recorded as 22138

Looking up "CCCCCCCC" , I found its Fluorescence intensity, fluorescence competitive binding assay, OBP11 recorded as 20285

Continuing:
Looking up "CCCCCCCCCCCCCCCCCCC" , I found its Fluorescence intensity, fluorescence competitive binding assay, OBP11 recorded as 29504

Looking up "C[C@@H]1CC[C@H]2C(C)(C)[C@H]3C[C@@]12CC[C@@]3(C)O" , I found its Fluorescence intensity, fluorescence competitive binding assay, OBP11 recorded as 33568

Looking up CCC/C=C/CO [(E)-2-hexenol] , I found its Fluorescence intensity, fluorescence competitive binding assay, OBP11 recorded as 20211

Looking up "CCCCCCCCCCCCCC" , I found its Fluorescence intensity, fluorescence competitive binding assay, OBP11 recorded as 29261
